- Species on record: Homo sapiens
- method_summary: Effect on VEGF-stimulated MAPK signaling pathway in HUVEC assessed as ERK1/2 phosphorylation level at 20 uM pretreated for 10 mins followed by VEGF stimulation and subsequent compound addition measured after 20 mins by Western blot analysis relative to control
Activity calls are given as the source filed them. No cut-off for these calls is given here.
reported_metric: Activity

Some compounds with known Activity results, for comparison:
- compound: "CCOC(=O)c1cnn(CC(O)CC)c1NC(=O)Nc1cccc(C(F)(F)F)c1 (stereo not given)"
  Activity: "inactive"
- compound: "CCOC(=O)c1cnn2c1N(C(=O)Nc1cccc(C(F)(F)F)c1)C(c1ccccc1)C2 (stereo not given)"
  Activity: "-26%"
- compound: "NC(=O)c1cnn2c1N(C(=O)Nc1cccc(C(F)(F)F)c1)C(c1ccccc1)C2 (stereo not given)"
  Activity: "inactive"
- compound: "CC(C)(C)c1cc(NC(=O)Nc2ccccc2F)n(CC(O)c2ccccc2)n1 (stereo not given)"
  Activity: "Active"
- compound: "CCOC(=O)c1cc(NC(=O)Nc2cccc(C(F)(F)F)c2)n(CC(O)c2ccccc2)n1 (stereo not given)"
  Activity: "Active"
- compound: "CC(C)(C)c1cc(NC(=O)Nc2cccc(F)c2)n(CC(O)c2ccccc2)n1 (stereo not given)"
  Activity: "Active"

So what's the measured Activity for this one? CCOC(=O)c1cc(NC(=O)Nc2ccccc2F)n(CC(O)c2ccccc2)n1 (stereo not given)
-89%

So what's the measured Activity for this one? CCOC(=O)c1cc(NC(=O)Nc2ccc(F)cc2)n(CC(O)c2ccccc2)n1 (stereo not given)
Active

So what's the measured Activity for this one? CC(C)(C)c1cc(NC(=O)Nc2ccc(F)cc2)n(CC(O)c2ccccc2)n1 (stereo not given)
-67%

So what's the measured Activity for this one? CCOC(=O)c1cnn(CC(=O)c2ccccc2)c1NC(=O)Nc1cccc(F)c1
Active

Data origin, for the record: ChEMBL document CHEMBL4033621
